Cited source: patent US6365582B1

Measured Relative molar binding affinity RBA (%) to the progesterone receptor, listed per entry.
Molecular target: progesterone receptor (Oryctolagus cuniculus, UniProt P06186)
Construct: receptors in the cytosol of animal target organs; from tissue; host or cells: uterus cytosol of the estradiol-primed rabbit
Sequence (P06186 whole entry): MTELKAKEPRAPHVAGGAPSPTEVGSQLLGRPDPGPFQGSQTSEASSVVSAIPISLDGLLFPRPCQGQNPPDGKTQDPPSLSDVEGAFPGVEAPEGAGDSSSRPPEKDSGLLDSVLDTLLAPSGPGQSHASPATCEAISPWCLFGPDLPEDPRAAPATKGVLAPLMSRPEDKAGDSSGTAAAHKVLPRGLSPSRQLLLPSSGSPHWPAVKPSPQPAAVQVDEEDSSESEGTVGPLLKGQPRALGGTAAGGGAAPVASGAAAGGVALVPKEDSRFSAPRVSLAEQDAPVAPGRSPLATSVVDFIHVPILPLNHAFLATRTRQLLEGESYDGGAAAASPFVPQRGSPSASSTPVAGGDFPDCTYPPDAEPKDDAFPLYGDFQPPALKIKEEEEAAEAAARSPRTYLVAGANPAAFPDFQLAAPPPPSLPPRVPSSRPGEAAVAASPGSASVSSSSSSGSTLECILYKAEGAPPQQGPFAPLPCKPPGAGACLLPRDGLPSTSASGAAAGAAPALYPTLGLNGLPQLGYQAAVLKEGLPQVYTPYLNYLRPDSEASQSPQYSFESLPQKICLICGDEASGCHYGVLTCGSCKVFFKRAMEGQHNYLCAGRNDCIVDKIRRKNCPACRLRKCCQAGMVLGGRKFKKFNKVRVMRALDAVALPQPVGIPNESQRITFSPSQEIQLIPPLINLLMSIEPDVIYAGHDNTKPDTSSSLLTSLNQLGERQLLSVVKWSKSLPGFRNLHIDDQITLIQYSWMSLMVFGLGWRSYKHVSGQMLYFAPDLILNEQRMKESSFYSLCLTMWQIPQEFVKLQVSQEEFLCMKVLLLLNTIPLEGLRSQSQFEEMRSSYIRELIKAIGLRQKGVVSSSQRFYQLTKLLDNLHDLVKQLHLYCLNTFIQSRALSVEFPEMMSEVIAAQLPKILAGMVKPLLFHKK
Assay: Receptor binding affinity, progesterone receptor (competitive binding, uterus cytosol)
Details: Progesterone = 100%; uterus cytosol of estradiol-primed rabbit; tracer 3H-ORG 2058
Respond numerically; units are % and should not be typed.

Exam item: Item CN(C)c1ccc([C@H]2C[C@]3(C)[C@@H](CC[C@]3(O)CCCO)[C@@H]3CCC4=CC(=O)CCC4=C32)cc1 [ZK 98299, onapristone, reference compound] with progesterone receptor (Oryctolagus cuniculus, UniProt P06186) - Relative molar binding affinity RBA (%) to the progesterone receptor?
Marked response: 22

***
Exam item: Item CCSC(=O)O/N=C/c1ccc([C@H]2C[C@@]3(C)[C@@H](CC[C@@]3(O)CC#N)[C@@H]3CCC4=CC(=O)CCC4=C32)cc1 [Example 7] with progesterone receptor (Oryctolagus cuniculus, UniProt P06186) - Relative molar binding affinity RBA (%) to the progesterone receptor?
Marked response: 42

Exam item: Item CCSC(=O)OC[C@]1(O)CC[C@H]2[C@@H]3CCC4=CC(=O)CCC4=C3[C@@H](c3ccc(/C=N/OC(=O)SCC)cc3)C[C@@]21C [Example 8] with progesterone receptor (Oryctolagus cuniculus, UniProt P06186) - Relative molar binding affinity RBA (%) to the progesterone receptor?
Marked response: 74

Exam item: Item COCC1(OC)CCC2C3CCC4=CC(=O)CCC4=C3C(c3ccc(C=NOC(=O)SC)cc3)CC21C (stereo not shown) [Example 1] with progesterone receptor (Oryctolagus cuniculus, UniProt P06186) - Relative molar binding affinity RBA (%) to the progesterone receptor?
Marked response: 159

Exam item: Item CCSC(=O)ON=Cc1ccc(C2CC3(C)C(CCC3(O)COC)C3CCC4=CC(=O)CCC4=C23)cc1 (stereo not shown) [Example 4] with progesterone receptor (Oryctolagus cuniculus, UniProt P06186) - Relative molar binding affinity RBA (%) to the progesterone receptor?
Marked response: 44

====

Target: progesterone receptor (Oryctolagus cuniculus)
Construct: receptors in the cytosol of animal target organs; from tissue; host or cells: uterus cytosol of the estradiol-primed rabbit
Experiment: Receptor binding affinity, progesterone receptor (competitive binding, uterus cytosol)
Conditions: Progesterone = 100%; uterus cytosol of estradiol-primed rabbit; tracer 3H-ORG 2058
Label y when Relative molar binding affinity RBA (%) to the progesterone receptor is strictly below 200%; otherwise label n.

Answered cases to consult:
Exam item: Threshold test, Relative molar binding affinity RBA (%) to the progesterone receptor < 200%: COC[C@]1(OC)CC[C@H]2[C@@H]3CCC4=CC(=O)CCC4=C3[C@@H](c3ccc(/C=N/O)cc3)C[C@@]21C [J 867, reference compound]
Marked response: n

Exam item: Threshold test, Relative molar binding affinity RBA (%) to the progesterone receptor < 200%: CCSC(=O)O/N=C/c1ccc([C@H]2C[C@@]3(C)[C@@H](CC[C@]3(COC)OC)[C@@H]3CCC4=CC(=O)CCC4=C32)cc1 [Example 3]
Marked response: y

Exam item: Threshold test, Relative molar binding affinity RBA (%) to the progesterone receptor < 200%: CCSC(=O)ON=Cc1ccc(C2CC3(C)C(CCC3(O)CN=[N+]=[N-])C3CCC4=CC(=O)CCC4=C23)cc1 (centres unmarked) [Example 5]
Marked response: y

Exam item: Threshold test, Relative molar binding affinity RBA (%) to the progesterone receptor < 200%: COC[C@@]1(O)CC[C@H]2[C@@H]3CCC4=CC(=O)CCC4=C3[C@@H](c3ccc(/C=N/OC(=O)SC)cc3)C[C@@]21C [Example 2]
Marked response: y

***
Exam item: Threshold test, Relative molar binding affinity RBA (%) to the progesterone receptor < 200%: CCSC(=O)ON=Cc1ccc(C2CC3(C)C(CCC3(O)CCl)C3CCC4=CC(=O)CCC4=C23)cc1 (centres unmarked) [Example 6]
Marked response: y
